# studySystem: T1, Human TREM2 protein, on cells (human, UniProt Q9NZC2 19-230)
# T1 sequence: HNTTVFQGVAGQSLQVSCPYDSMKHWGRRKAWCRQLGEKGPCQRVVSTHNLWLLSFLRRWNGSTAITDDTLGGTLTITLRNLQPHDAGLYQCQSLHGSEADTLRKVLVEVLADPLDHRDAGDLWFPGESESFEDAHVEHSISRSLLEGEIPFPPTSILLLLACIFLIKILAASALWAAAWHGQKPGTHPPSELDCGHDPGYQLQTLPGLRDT
# protocolDescription: cell-based or functional assay
# pSyk FOB (30 nM Ab) per entry
propertyLabel: pSyk FOB (30 nM Ab) (fold over background)

RS9.F10 (antibody, V domains shown, same entries as RS9.F6; also called RS.F10) VH: QVQLQQPGAELVKPGASVKLSCKASGYTFTSYWMHWVKQSPGRGLEWIGRSDPTTGGTNYNEKFKTKATLTVDKPSSTAYMQLSSLTSDDSAVYYCVRTSGTGDYWGQGTSLTVSS VL: DVVMTQTPLSLPVSLGDQASISCRSSQSLVHNNGNTFLHWYLQKPGQSPKLLIYKVSNRFSGVPDRFSGSGSGTDFTLKISRVEAEDLGVYFCSQTTHVPPTFGGGTKLEIK :: 9.89
54C2.A1 (antibody, V domains shown, Mouse hybridoma antibody, Ig2b, k; also called RS8.54C2.A1) VH: QVHLQQSGSELRSPGSSVKLSCKDFDSEVFPIAYMSWVRQKPGHGFEWIGDILPSIGRRIYGVKFEDKATLDADTVSNTAYLELNSLTSEDSAIYYCTRKDYGSLAYWGQGTLVTVSA VL: DVVMTQTPLSLPVSLGDQASISCRSSQSLVHINGNTYLQWYLQKPGQSPKLLIYKVSNRFSGVPDRFSGSGSGTDFTLRISRVEAEDLGVYFCSQSTHLPYTFGGGTKLEIK :: 6.56
